FYI, the data here is from ChEMBL document CHEMBL1151314.

# testTarget: Protein kinase C alpha type (Homo sapiens)
# protocolDescription: Inhibition of human recombinant PKCalpha
endpointName: pIC50
Numbers only, as −log10 of the molar value.

C[C@@H]1O[C@@H](OC[C@H]2O[C@@H](OCCc3ccc(O)c(O)c3)[C@H](O)[C@@H](O[C@@H]3O[C@@H](C)[C@H](O)[C@@H](O)[C@H]3O)[C@@H]2OC(=O)/C=C/c2ccc(O)c(O)c2)[C@H](O)[C@H](O)[C@H]1O [POLIUMOSIDE]; 4.61
COc1cc(/C=C/C(=O)O[C@H]2[C@H](O[C@@H]3O[C@@H](C)[C@H](O)[C@@H](O)[C@H]3O)[C@@H](O)[C@H](OCCc3ccc(O)c(O)c3)O[C@@H]2CO)ccc1O [LEUCOSCEPTOSIDE A]; 4.72
O=C(/C=C/c1ccc(O)c(O)c1)O[C@H]1[C@H](O)[C@@H](O)[C@H](OCCc2ccc(O)c(O)c2)O[C@@H]1CO [CALCEOLARIOSIDE A]; 6.22
COc1ccc(CCO[C@@H]2O[C@H](CO[C@@H]3O[C@@H](C)[C@H](O)[C@@H](O)[C@H]3O)[C@@H](OC(=O)/C=C/c3ccc(O)c(OC)c3)[C@H](O[C@@H]3O[C@@H](C)[C@H](O)[C@@H](O)[C@H]3O)[C@H]2O)cc1O; 3.90
C[C@@H]1O[C@@H](OC[C@H]2O[C@@H](OCCc3ccc(O)c(O)c3)[C@H](O)[C@@H](O)[C@@H]2OC(=O)/C=C/c2ccc(O)c(O)c2)[C@H](O)[C@H](O)[C@H]1O [FORSYTHIASIDE]; 5.72
C[C@@H]1O[C@@H](O[C@@H]2[C@@H](O)[C@H](OCCc3ccc(O)c(O)c3)O[C@H](CO)[C@H]2OC(=O)/C=C/c2ccc(O)c(O)c2)[C@H](O)[C@H](O)[C@H]1O [ACETOSIDE]; 5.03
O=C(/C=C/c1ccc(O)c(O)c1)OC[C@H]1O[C@@H](OCCc2ccc(O)c(O)c2)[C@H](O)[C@@H](O)[C@@H]1O [CALCEOLARIOSIDE B]; 5.34

**Q:** For O=C(/C=C/c1ccc(O)c(O)c1)OC[C@H]1O[C@@H](OCCc2ccc(O)c(O)c2)[C@H](O)[C@@H](O[C@@H]2O[C@H](CO)[C@@H](O)[C@H](O)[C@H]2O)[C@@H]1O [PLANTAINOSIDE D] , what is its reported pIC50?
**A:** 4.83
